Molecular target: EGFR wild type (Homo sapiens)
Construct: purchased Carna Bio
Sequence (P00533 25-1210): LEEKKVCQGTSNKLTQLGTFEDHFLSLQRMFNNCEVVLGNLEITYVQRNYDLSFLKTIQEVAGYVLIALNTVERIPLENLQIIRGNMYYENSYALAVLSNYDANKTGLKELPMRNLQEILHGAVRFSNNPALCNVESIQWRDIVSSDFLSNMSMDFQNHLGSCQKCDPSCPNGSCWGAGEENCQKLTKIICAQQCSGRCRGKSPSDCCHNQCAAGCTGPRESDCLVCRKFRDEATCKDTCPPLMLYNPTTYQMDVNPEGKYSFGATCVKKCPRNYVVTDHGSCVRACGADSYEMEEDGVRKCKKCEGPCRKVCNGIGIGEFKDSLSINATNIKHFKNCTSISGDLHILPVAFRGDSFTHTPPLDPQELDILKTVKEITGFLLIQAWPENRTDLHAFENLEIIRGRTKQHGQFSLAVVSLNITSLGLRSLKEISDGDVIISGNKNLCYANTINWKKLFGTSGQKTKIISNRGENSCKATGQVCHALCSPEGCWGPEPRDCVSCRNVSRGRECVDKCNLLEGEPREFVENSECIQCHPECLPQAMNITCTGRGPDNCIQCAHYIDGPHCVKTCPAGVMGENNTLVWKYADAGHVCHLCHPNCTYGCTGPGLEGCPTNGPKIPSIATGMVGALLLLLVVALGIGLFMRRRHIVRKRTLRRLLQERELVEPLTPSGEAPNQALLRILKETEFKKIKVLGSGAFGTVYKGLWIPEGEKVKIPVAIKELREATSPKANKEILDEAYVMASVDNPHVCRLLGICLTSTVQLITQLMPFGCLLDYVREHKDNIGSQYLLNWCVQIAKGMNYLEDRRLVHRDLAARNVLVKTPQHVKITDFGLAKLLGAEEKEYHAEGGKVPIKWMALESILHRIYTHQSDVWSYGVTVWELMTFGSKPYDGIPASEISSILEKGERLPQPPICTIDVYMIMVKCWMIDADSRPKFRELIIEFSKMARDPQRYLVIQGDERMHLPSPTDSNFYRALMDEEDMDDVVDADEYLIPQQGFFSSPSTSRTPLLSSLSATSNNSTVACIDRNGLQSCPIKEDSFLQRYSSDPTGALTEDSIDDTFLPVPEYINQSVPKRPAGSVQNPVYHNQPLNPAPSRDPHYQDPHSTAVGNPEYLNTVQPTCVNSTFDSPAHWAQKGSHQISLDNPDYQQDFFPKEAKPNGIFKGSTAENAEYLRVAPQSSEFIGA
Assay: Inhibition of EGFR wild type biochemical enzymatic activity (HTRF)
Details: EGFR WT, 1 mM ATP, 1 h, room temperature, read-out: IC50 (nM) @WT
The entries below come with measured IC50 values attached.

{"columns": ["compound", "tgt", "comparator", "IC50 (nM)"],
 "data": [
  ["Cn1ncc2c1OCCN1CC3CCC(C3)(C1)n1c(nc3ccc(N4CCC(N5CC(F)C5)CC4)cc31)NC(=O)c1cc-2c(=O)n(C)c1 (single isomer, unassigned) [Example A87A]", "EGFR wild type (Homo sapiens)", ">", 5000],
  ["CCN1CCN(c2ccc3nc4n(c3c2)C23CCC(CN(CCOc5c(cnn5C)-c5cc(cn(C)c5=O)C(=O)N4)C2)C3)CC1 (single isomer, unassigned) [Example A107B]", "EGFR wild type (Homo sapiens)", "=", 20],
  ["C[C@@H]1CCCOc2c(cnn2C)-c2cc(cn(C)c2=O)C(=O)Nc2nc3ccc(N4CCN(C)CC4)cc3n2C1", "EGFR wild type (Homo sapiens)", "=", 323],
  ["CN1CCN(c2cc3c(cc2F)nc2n3C34CCC(CC3)CN(CCOc3c(cnn3C)-c3cc(cn(C)c3=O)C(=O)N2)C4)CC1", "EGFR wild type (Homo sapiens)", ">", 5000],
  ["CN1CCCC12CN(c1ccc3nc4n(c3c1)C13CCC(CN(CCOc5c(cnn5C)-c5cc(cn(C)c5=O)C(=O)N4)C1)C3)C2 (single isomer, unassigned) [Example A76B]", "EGFR wild type (Homo sapiens)", "=", 206],
  ["Cn1ncc2c1OCCN1CC3CCC(CC3)(C1)n1c(nc3ccc(N4CCOCC4)cc31)NC(=O)c1cc-2c(=O)n(C)c1", "EGFR wild type (Homo sapiens)", ">", 5000]
]}
